Item-by-item account of pIC50
Molecular target: iNOS (Rattus norvegicus, UniProt Q06518)
Construct: endothelium-denuded rings were exposed to LPS
Experiment: Inhibition of iNOS in situ in rat aortic rings (induced smooth muscle tone, LPS-exposed endothelium-denuded rings)
Conditions: endothelium-denuded, LPS 6 h, phenylephrine approx. ED90
pIC50 is defined as minus the log10 of a concentration measured in mol/L.

                      compound                       experimental_system  quantitative_result
0  CC(=N)NCCSCC[C@@H](N)C(=O)O  iNOS (Rattus norvegicus, UniProt Q06518)                 5.18

Query compound follows.
Query CC(=N)NCCSCCC(N)C(=O)O (racemic) yields pIC50 of 6.35
